Test system: COLO 205 colon
Method Notes: NCI tumour cell line growth inhibition, 48 h; in the data active means GI50 below about 0.43 µM; inactive means the rest
Give one outcome, nothing more. List: T = active, F = inactive

Answered cases to consult:
Molecule	Class
COc1cc(-c2cc(/C=C/C(=O)c3ccc4c(c3)OCO4)[nH]n2)cc(OC)c1OC	F
COc1ccccc1CNCCCN1C(=O)c2ccc3c4c(ccc(c24)C1=O)C(=O)N(CCCNCCCCNCCCCN)C3=O	T
CCCN(CCC)c1ccc(C=O)cc1	F

Challenge: I would be grateful if you could indicate the recorded call for "O=C1Nc2ccccc2C1(c1ccc(O)c(F)c1)c1ccc(O)c(F)c1" .
Response given: T

Challenge: I would be grateful if you could indicate the recorded call for C=CCCC(O)c1ccc(C(O)CCCCCCCCCCCC)o1 (stereo not drawn) .
Response given: F

* * *

System: CCRF-CEM leukemia
Method Notes: NCI tumour cell line growth inhibition, 48 h; in the data active = GI50 below about 0.43 µM; inactive = the rest
Give one outcome, nothing more. List: active, inactive

Answered cases to consult:
Compound	Class
C=CCCC(O)c1ccc(C(O)CCCCCCCCCCCC)o1 (configuration not stated)	inactive
C(=N/Nc1ncnc2nc[nH]c12)/c1ccccn1	active
O=C(/C=C/C=C/c1ccccc1)c1ccc(Nc2nc(Nc3ccccc3)nc(Nc3ccccc3)n2)cc1	inactive
CC1(C)CC(=O)C2=C(C1)NC(SSC1=C(C#N)C(c3ccc(Br)cc3)C3=C(CC(C)(C)CC3=O)N1)=C(C#N)C2c1ccc(Br)cc1 (configuration not stated)	inactive
CN(CCCCCl)P(=O)(OCc1ccc([N+](=O)[O-])o1)C(F)(F)c1ccc(CC(=O)N[C@@H](CC(=O)O)C(=O)N[C@@H](Cc2ccc(C(F)(F)P(=O)(OCc3ccc([N+](=O)[O-])o3)N(C)CCCCCl)cc2)C(N)=O)cc1 (some centres not stated)	inactive

Challenge: I would be grateful if you could indicate the recorded call for "COc1cc(C(=O)NC2CCN(C)CC2)ccc1Nc1ncc2c(n1)N(C1CCCC1)CC(F)(F)C(=O)N2C" .
Response given: active

Challenge: I would be grateful if you could indicate the recorded call for "CC1(C)CC[C@]2(C(=O)n3ccnc3)CC[C@]3(C)[C@H](C(=O)C=C4[C@@]5(C)C=C(C#N)C(=O)C(C)(C)[C@@H]5CC[C@]43C)[C@@H]2C1" .
Response given: active

* * *

Tested on: RXF-631 renal
Method Notes: NCI tumour cell line growth inhibition, 48 h
Reported TGI values for a set of molecules

For orientation, consider the following solved cases.
Molecule	TGI
CC(=O)Nc1ccc(C2=N/C(=C\c3ccc(Cl)c(Cl)c3)C(=O)O2)cc1	> 100 µM
COc1nc(/C=N/NC(N)=S)nc(OC)n1	> 100 µM
Cc1ccccc1N=Cc1ccc(N(CCC#N)S(=O)(=O)c2ccccc2)cc1	> 100 µM

Given the molecule COc1ccc2c(c1)CCc1cnn(C3OC(COC(C)=O)C(OC(C)=O)C(OC(C)=O)C3OC(C)=O)c1-2 (stereo not given) and test system RXF-631 renal, the measured TGI is > 100 µM

Given the molecule "Cc1c2ccccc2c(CO)c2cc(F)c3ccccc3c12" and test system RXF-631 renal, the measured TGI is 30.7 µM

* * *

Test system: NCI-H23 lung
Method Notes: NCI tumour cell line growth inhibition, 48 h
Experimental Endpoint: log10 TGI (log10 of the value in µM)
Use the decimal logarithm of TGI (µM).

For orientation, consider the following solved cases.
Molecule	log10 TGI
COc1ccc(-c2nc(N(C)C)c3ccccc3n2)cc1	1.84
CC/C(Cl)=N\OC(=O)Nc1ccccc1OC(F)(F)F	1.66
C#CC[C@@H]1C[C@]2(C)[C@H]3CC[C@@H]4[C@H]5[C@H](C(=C)C)CC[C@]5(C(=O)O)CC[C@@]4(C)[C@]3(C)CC[C@H]2C(C)(C)[C@H]1O	0.84
O=C(/C=C/c1ccccn1)c1ccccc1O	0.94
Oc1ccc(-c2c3ccccc3c(-c3ccc(OCCBr)cc3)c3ccccc23)cc1	1.54

Reported log10 TGI for CC(C)(C)C(=O)OCOP(=O)(OCOC(=O)C(C)(C)C)C1CCCN(OC(=O)c2ccccc2)C1=O (centres undefined) was 0.99

Reported log10 TGI for "CN(C)c1ccc(/C=C/C(=O)c2ccccc2)cc1Br" was 1.60

Reported log10 TGI for "Fc1ccc(CNc2c3ccccc3nc3ccccc23)cc1" was 0.93

Reported log10 TGI for COc1ccc2nc3cc(Cl)ccc3c(NCCC(=O)OCC(O)C(O)C(O[C@H](C)C(=O)NC(C)C(=O)NC(CCC(N)=O)C(=O)OCc3ccccc3)C(C=O)NC(C)=O)c2c1 (some centres undefined) was 1.44

Reported log10 TGI for OC(c1ccc(F)cc1)C(F)(F)c1nc(-c2ccccc2)no1 (centres undefined) was 1.87

Reported log10 TGI for C=C1C(=O)OC2C[C@H](C)C3CC(=O)C(C)=C3CC12 (some centres undefined) was 1.46

Reported log10 TGI for "O=C(c1ccccc1)c1ccc(Cl)c([N+](=O)[O-])c1" was 1.52
